B1: Far upstream element-binding protein 1, residues 98 to 169; numbered along this chain, Q96AE4 (parent)
chain: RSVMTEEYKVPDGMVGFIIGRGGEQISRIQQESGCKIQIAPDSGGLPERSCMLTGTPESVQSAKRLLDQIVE

# Variants of: B1
# method_notes: abundance fitness (aPCA) (normalised: wild type 0, dead -1); higher = more abundant; growth selection in yeast, the domain comes from the species named
# experimental_parameters: Homo sapiens
Response field class: enum, chosen by comparing abundance fitness against low end (below -0.09), middle (-0.09 to below -0.03), high end (-0.03 or more)

// known answers, use as guide
[[record]]
seq_string = "RSVMTEEYKVPDGMVGFIIGRGGEQIYRIQQESGCKIQIAPDSGGLPERSCMLTGTPESVQSAKRLLDQIVE"
class_name = "middle"

[[record]]
seq_string = "RSVMTEEYKVPDGMVGFIIGRGGEQISRIQQESGCKIQIAPDSGGLVERSCMLTGTPESVQSAKRLLDQIVE"
class_name = "middle"

[[record]]
seq_string = "RSVMTEEYKVPDGMVGFIIGRGGEQISRIQQESGCKIQIAPDSGGLPERDCMLTGTPESVQSAKRLLDQIVE"
class_name = "high end"

[[record]]
seq_string = "RSGMTEEYKVPDGMVGFIIGRGGEQISRIQQESGCKIQIAPDSGGLPERSCMLTGTPESVQSAKRLLDQIVE"
class_name = "middle"

[[record]]
seq_string = "RSVMTEEYKVPDGMVGFIIGRGGEQISRIQQESGIKIQIAPDSGGLPERSCMLTGTPESVQSAKRLLDQIVE"
class_name = "low end"


## Input Bin this entry: `RSVMTEEYKVPDGMVGFIIGRGGEQISRIQQESGCKIQIAPDSGGLPERSCMLTGKPESVQSAKRLLDQIVE`
## Output high end

## Input Bin this entry: `RSVYTEEYKVPDGMVGFIIGRGGEQISRIQQESGCKIQIAPDSGGLPERSCMLTGTPESVQSAKRLLDQIVE`
## Output high end

## Input Bin this entry: `RSVMTEEYKVPDGMVGFIIGRGGEQISRIQQESGCKIQIAPDSGGLPERSCMLFGTPESVQSAKRLLDQIVE`
## Output low end

## Input Bin this entry: `RSVMTEEYKVPDGMVGFIIGRGGEQIVRIQQESGCKIQIAPDSGGLPERSCMLTGTPESVQSAKRLLDQIVE`
## Output high end

## Input Bin this entry: `RSVMTEEYKVPDGMVGFIIGRGGEQISRIQQESGCKIQIAPDSGGLPERSCMLTATPESVQSAKRLLDQIVE`
## Output low end

## Input Bin this entry: `RSVMTEEYKVPDGMVGFIIGRGGEQISRIQQESGCKIQIAPDSGGLPERSCMLTGTPESQQSAKRLLDQIVE`
## Output low end

## Input Bin this entry: `RSVMTEEYKVPDGMVEFIIGRGGEQISRIQQESGCKIQIAPDSGGLPERSCMLTGTPESVQSAKRLLDQIVE`
## Output high end

## Input Bin this entry: `RSVMTEEYKVPDGMVGFQIGRGGEQISRIQQESGCKIQIAPDSGGLPERSCMLTGTPESVQSAKRLLDQIVE`
## Output low end

## Input Bin this entry: `RSVMTTEYKVPDGMVGFIIGRGGEQISRIQQESGCKIQIAPDSGGLPERSCMLTGTPESVQSAKRLLDQIVE`
## Output high end

## Input Bin this entry: `RSVMMEEYKVPDGMVGFIIGRGGEQISRIQQESGCKIQIAPDSGGLPERSCMLTGTPESVQSAKRLLDQIVE`
## Output high end

## Input Bin this entry: `RSVMTEEYKVPDGMVGFIIHRGGEQISRIQQESGCKIQIAPDSGGLPERSCMLTGTPESVQSAKRLLDQIVE`
## Output middle

## Input Bin this entry: `RSVMTEEYKVPDGMVGFIIGRGGEQISRIQQESGCKIQIAPDSGGLPERSCMLTGCPESVQSAKRLLDQIVE`
## Output high end

## Input Bin this entry: `RSVMTEEYKVPDGMVGFIIGRGGEQISRIQQESGCKIQIAPDSGNLPERSCMLTGTPESVQSAKRLLDQIVE`
## Output low end

## Input Bin this entry: `RSVMTEEYKVPYGMVGFIIGRGGEQISRIQQESGCKIQIAPDSGGLPERSCMLTGTPESVQSAKRLLDQIVE`
## Output middle

## Input Bin this entry: `RSVMTEEYKVPDGMVGFIIGRGGEQISRIQQESGCKIQIAPDSGGLPERSCMLTSTPESVQSAKRLLDQIVE`
## Output low end

## Input Bin this entry: `RSVITEEYKVPDGMVGFIIGRGGEQISRIQQESGCKIQIAPDSGGLPERSCMLTGTPESVQSAKRLLDQIVE`
## Output high end

## Input Bin this entry: `RSVMTEEYKVPDGMVGFGIGRGGEQISRIQQESGCKIQIAPDSGGLPERSCMLTGTPESVQSAKRLLDQIVE`
## Output low end

## Input Bin this entry: `RSVMTEEYKVPDGMVGFIIGRGGEQISRWQQESGCKIQIAPDSGGLPERSCMLTGTPESVQSAKRLLDQIVE`
## Output low end

## Input Bin this entry: `RSVMTEEYKVPDGMVGFIIGRGGEQISRIQQESGSKIQIAPDSGGLPERSCMLTGTPESVQSAKRLLDQIVE`
## Output low end

## Input Bin this entry: `RSVMTEEYKVPDGMVGFIIGRGGEQISRIQQESGCKIQIAPDSGGLPERSCMLTGTPESVQSDKRLLDQIVE`
## Output low end

## Input Bin this entry: `RSVMTEEYKVPDGMVGFIIGRGGEQISRIQQESGCKIQIAPDSGGLPERSCMLTGTPESVQSAKRLLDHIVE`
## Output middle

## Input Bin this entry: `RSEMTEEYKVPDGMVGFIIGRGGEQISRIQQESGCKIQIAPDSGGLPERSCMLTGTPESVQSAKRLLDQIVE`
## Output high end

## Input Bin this entry: `RSVMTEEYKVPDGMVGFIIGRGGEGISRIQQESGCKIQIAPDSGGLPERSCMLTGTPESVQSAKRLLDQIVE`
## Output middle

## Input Bin this entry: `RSVMTEEYKVPDGMVGFIIGRGGEQISRIQQESGCKPQIAPDSGGLPERSCMLTGTPESVQSAKRLLDQIVE`
## Output low end
